Every entry's value here was drawn from paper PMC10584170.

Test system: P. falciparum male gametocytes
Procedure Details: P. falciparum Dual Gamete Formation Assay (PfDGFA), male readout (exflagellation)
Assay type: cell-based, Plasmodium falciparum NF54
Condition Label: 2µM, 24h preincubation; hits selected on >50% inhibition in the male readout across replicates
Quantity Measured: HitlevelM

# query: HitlevelM of entry COc1cc2c(cc1OCCN1CCC(N)CC1)N(C(=O)/C=C/c1ccccc1Cl)CC2.Cl 0

* * *

Tested on: P. falciparum male gametocytes
Procedure Details: P. falciparum Dual Gamete Formation Assay (PfDGFA), male readout (exflagellation)
Assay type: cell-based, Plasmodium falciparum NF54
Condition Label: Plasmodium falciparum; 2µM, 24h preincubation with gametocytes; replicate R1; read-out: % inhibition male (individual replicates) R1
As shown below, each of these molecules has a reported inhibition at 2 µM value.
Reply numerically in %, unit not repeated.

These recorded examples may help you get a feel for the data.
INSERT INTO measurements (molecule, target_or_test_system, quantity_measured, result_number) VALUES
  ('Nc1cc(C=Cc2ccc([N+](=O)[O-])s2)nc2ccccc12', 'P. falciparum male gametocytes', 'inhibition at 2 µM', 99.9),
  ('CCS(=O)(=O)Nc1ccc2c(c1)/C(=C(/Nc1ccc(CN3CCCCC3)cc1)c1ccccc1)C(=O)N2', 'P. falciparum male gametocytes', 'inhibition at 2 µM', 87),
  ('CN(C)CCCn1c(N)c(-c2nc3ccccc3[nH]2)c2nc(C#N)c(C#N)nc21', 'P. falciparum male gametocytes', 'inhibition at 2 µM', 96.8);

# query: inhibition at 2 µM of entry O=C(O)CCSSc1cccc[n+]1[O-] 98.9

// query: O=C(O)C(F)(F)F.O=c1[nH]ccc2nc(N[C@@H]3CCCNC3)nc(Nc3ccc(S(=O)(=O)N4CCOCC4)cc3)c12 93.1

// query: Br.c1cc(C2=NC3CCCCC3N2)ccc1OCCCOc1ccc(C2=NC3CCCCC3N2)cc1 (centres unmarked) 93.1

// query: CC(C)(CN)c1nc(-c2ccc(Cl)c(O)c2)c(-c2ccncc2)[nH]1.Cl 96

// query: Cc1cc(Nc2ccncc2)n2nc(C)c(-c3ccc(Cl)cc3)c2n1 96.8

* * *

Test system: P. falciparum female gametocytes
Procedure Details: P. falciparum Dual Gamete Formation Assay (PfDGFA), female readout (Pfs25-positive female gametes)
Format: cell-based, Plasmodium falciparum NF54
Condition Label: Plasmodium falciparum, 24 h, read-out: Female IC50
Quantity Measured: IC50 (µM)
Reply numerically in µM, unit not repeated.

# query: IC50 of entry CC(CO)(CO)NCc1cc2c3ccccc3c(CNC(C)(CO)CO)cc2c2ccccc12.CS(=O)(=O)O 4.79

* * *

As shown below, each of these compounds has a reported Cytotox ratio Pf GC-ATP value.
Tested on: P. falciparum gametocytes
Procedure Details: P. falciparum Gametocyte Viability ATP Assay (PfGCT)
Type: cell-based, Plasmodium falciparum
Condition Label: Mean TOX HepG2 over GC-ATP IC50; GREEN = >10-fold; RED = <10-fold

These recorded examples may help you get a feel for the data.
INSERT INTO measurements (compound, target_or_test_system, result) VALUES
  ('C=CCN(C(=O)c1ccc(Cl)c([N+](=O)[O-])c1)c1nc(-c2ccccc2)cs1 [TC38]', 'P. falciparum gametocytes', 462.3),
  ('O=C(c1ccc([N+](=O)[O-])o1)N1CCC(Cc2ccc(C(F)(F)F)cc2)CC1 [TC15]', 'P. falciparum gametocytes', 89.2),
  ('CC(C)(C)c1ccc(-c2nc3c(ccc4nc(N)nc(N)c43)[nH]2)cc1.Cl [TC05]', 'P. falciparum gametocytes', 14.6),
  ('Cc1cccc2nc(-c3ccc(-c4cccc(CNCCN5CCNCC5)c4)cc3)[nH]c12.O=C(O)C(F)(F)F [TC67]', 'P. falciparum gametocytes', 22.4),
  ('[O-][s+]1c(Cl)c(-c2ccc(Cl)cc2)c2ccc(Cl)cc21 (stereo not shown) [TC66]', 'P. falciparum gametocytes', 695.8),
  ('Cc1cc(Nc2ccncc2)n2nc(C)c(-c3ccc(Cl)cc3)c2n1 [TC79]', 'P. falciparum gametocytes', 63.5),
  ('c1ccc2sc(Sc3ncnc4sccc34)nc2c1 [TC45]', 'P. falciparum gametocytes', 150.0),
  ('O=C(O)CCSSc1cccc[n+]1[O-] [TC78]', 'P. falciparum gametocytes', 82.1);

GET /values?readout=Cytotox ratio Pf GC-ATP&system=P. falciparum gametocytes&item= Fc1ccc2[nH]c(-c3ccc(-c4ccc(CNCCN5CCNCC5)cc4)s3)nc2c1.O=C(O)C(F)(F)F [TC23] 46.3

// query: Nc1cc(C=Cc2ccc([N+](=O)[O-])o2)nc2ccccc12 [TC58] 35.7

* * *

System: P. falciparum female gametocytes
Procedure Details: P. falciparum Dual Gamete Formation Assay (PfDGFA), female readout (Pfs25-positive female gametes)
Type: cell-based, Plasmodium falciparum NF54
Condition Label: PfDGFA at 2µM, 24h preincubation with gametocytes; replicate R3
As shown below, each of these compounds has a reported % inhibition female (individual replicates) R3 value.
Reply numerically in %, unit not repeated.

These recorded examples may help you get a feel for the data.
INSERT INTO measurements (compound, result_number) VALUES
  ('COc1ccc(CNC2CCN(C)CC2)cc1-c1ccc(S(=O)(=O)NCc2ccccc2)c(F)c1.O=C(O)C(F)(F)F', 30.7),
  ('COc1cc2ccccc2c(CNCCCCCCNCc2c(OC)c(OC)cc3ccccc23)c1OC.CS(=O)(=O)O', 23.0),
  ('Nc1nc(N)c2c(ccc3c2ccn3Cc2ccc(-c3ccccc3)cc2)n1', 92.9),
  ('CN1CCC(N2CCN(Cc3cccc(-c4ccc(-c5nc6cc(C(F)(F)F)ccc6[nH]5)cc4)c3)CC2)CC1.O=C(O)C(F)(F)F', 18.6),
  ('Br.CCCCc1ccc(CCNCCCCCCNCCc2ccc(O)c(O)c2)cc1', 35.5),
  ('COc1ccc(CNC2CCN(C)CC2)cc1-c1ccc(S(=O)(=O)NCc2ccccc2)s1.O=C(O)C(F)(F)F', 13.9);

Field: next compound
# query: % inhibition female (individual replicates) R3 of entry CN(C)CC(O)COc1ccc(Nc2ncc([N+](=O)[O-])c(Nc3ccccc3O)n2)cc1.O=C(O)C(F)(F)F (stereo not shown) 2.4

* * *

System: P. falciparum male gametocytes
Procedure Details: P. falciparum Dual Gamete Formation Assay (PfDGFA), male readout (exflagellation)
Format: cell-based, Plasmodium falciparum NF54
Condition Label: HepG2 Tox50 versus male IC50
Quantity Measured: Selectivity Ratio M
Hey, just send me the number, nothing else.

INSERT INTO results (molecule, target_or_test_system, result_number) VALUES
  ('CCN(CC)CCOc1ccc(C(O)(C#CC(O)(c2ccc(C)cc2)c2ccc(OCCN(CC)CC)cc2)c2ccc(C)cc2)cc1 (stereo not shown)', 'P. falciparum male gametocytes', 2.02),
  ('CC(Cc1ccc(NC(=O)c2ccc(CNCCCCc3ccccc3)cc2)cc1)NCCc1cccc(Cl)c1.Cl (stereo not shown)', 'P. falciparum male gametocytes', 2.02),
  ('CN1CCC(NCc2ccc(-c3cnc(NCc4ccccc4)nc3)cc2)CC1.O=C(O)C(F)(F)F', 'P. falciparum male gametocytes', 11.62),
  ('Cl.O=S(=O)(Nc1cc2c(cc1OCCCN1CCCCC1)CCNCC2)c1ccc(-c2ccc(Cl)cc2)cc1', 'P. falciparum male gametocytes', 5.89),
  ('CCN1CCN(c2ccc(Nc3c4ccccc4nc4ccccc34)cc2)CC1', 'P. falciparum male gametocytes', 8.44),
  ('CCCCOc1ccc(CNCCCCCCNCc2ccc(OCCCC)c3ccccc23)c2ccccc12.CS(=O)(=O)O', 'P. falciparum male gametocytes', 2.64);

Field: next molecule
# query: Selectivity Ratio M of entry FC(F)(F)c1ccc2[nH]c(-c3ccc(-c4cccc(CNCCN5CCNCC5)c4)cc3)nc2c1.O=C(O)C(F)(F)F 12.52

* * *

Test system: P. falciparum male gametocytes
Procedure Details: P. falciparum Dual Gamete Formation Assay (PfDGFA), male readout (exflagellation)
Format: cell-based, Plasmodium falciparum NF54
Condition Label: 2µM, 24h preincubation with gametocytes prior to induction of gametogenesis; replicate R3
Rule: Criterion met for % inhibition male (individual replicates) R3 not less than 20%, Criterion not met for anything less.

# example entries with known answers
INSERT INTO measurements (compound, target_or_test_system, label) VALUES
  ('Cl.c1ccc2c(c1)cc(CNCCCN1CCN(CCCNCc3cc4ccccc4c4ccccc34)CC1)c1ccccc12', 'P. falciparum male gametocytes', 'Criterion not met'),
  ('O=C(/C=C/c1c(Cl)cccc1Cl)NC1CCC(CN2CCC(c3c[nH]c4ccncc34)CC2)CC1 (stereo not drawn)', 'P. falciparum male gametocytes', 'Criterion not met'),
  ('COc1cc(NC(=O)c2sc(-c3ccc(Cl)cc3)cc2NC(=O)c2cccnc2)ccc1OCCN1CCCC1', 'P. falciparum male gametocytes', 'Criterion met'),
  ('COc1ccc(CCNCCCCCNCCc2ccc(Cl)cc2)cc1OC.Cl', 'P. falciparum male gametocytes', 'Criterion met'),
  ('Nc1cc2c(C3CCN(CC4CCN(C(=O)/C=C/c5ccc(Cl)c(Cl)c5)CC4)CC3)c[nH]c2cn1', 'P. falciparum male gametocytes', 'Criterion met');

Item Cl.N[C@@H](CCNC1CCN(c2cccc(C(F)(F)F)c2)CC1)Cc1ccc(F)c(F)c1 with % inhibition male (individual replicates) R3 of 20% or above? Criterion met

// query: CN1CCC(N2CCN(CCOc3cc(NC(=O)/C=C/c4ccccc4Cl)ccc3Br)CC2)CC1.O=C(O)C(=O)O Criterion not met
